target or system: Recombinant human Src (Homo sapiens, UniProt P12931)
Construct: purchased Upstate (Lake Placid, N.Y.)
Sequence (P12931 whole entry): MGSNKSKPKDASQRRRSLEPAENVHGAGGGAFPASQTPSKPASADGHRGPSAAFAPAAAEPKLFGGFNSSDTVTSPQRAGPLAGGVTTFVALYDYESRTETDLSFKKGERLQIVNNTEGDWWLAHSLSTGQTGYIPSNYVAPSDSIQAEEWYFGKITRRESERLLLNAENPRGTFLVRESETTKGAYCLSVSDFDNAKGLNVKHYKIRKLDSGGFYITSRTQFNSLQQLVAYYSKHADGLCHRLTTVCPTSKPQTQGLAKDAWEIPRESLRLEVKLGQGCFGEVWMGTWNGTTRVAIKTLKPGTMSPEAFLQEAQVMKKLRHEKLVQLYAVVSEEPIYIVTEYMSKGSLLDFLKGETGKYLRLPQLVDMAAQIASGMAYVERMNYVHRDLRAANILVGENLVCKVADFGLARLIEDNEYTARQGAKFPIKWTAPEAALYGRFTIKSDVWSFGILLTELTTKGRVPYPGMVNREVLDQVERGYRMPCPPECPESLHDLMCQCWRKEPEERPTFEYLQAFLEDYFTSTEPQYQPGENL
protocol notes: Enzymatic assay on isolated Src
Format: biochemical
measurement conditions: mean of at least two experiments; read-out: Enzymatic Data (Ki, μM) c-Src

>  <compound>
CC(Cn1ncc2c(Nc3cccc(Cl)c3)nc(SCCN3CCOCC3)nc21)c1ccccc1 (centres unmarked)

>  <target or system>
Recombinant human Src (Homo sapiens, UniProt P12931)

>  <Ki / µM>
0.97

$$$$
>  <compound>
CCCCSc1nc(Nc2cccc(O)c2)c2cnn(CC(Cl)c3ccccc3)c2n1 (centres unmarked)

>  <target or system>
Recombinant human Src (Homo sapiens, UniProt P12931)

>  <Ki / µM>
0.13

$$$$
>  <compound>
ClC(Cn1ncc2c(Nc3ccccc3)nc(SC3CCCC3)nc21)c1ccccc1 (centres unmarked)

>  <target or system>
Recombinant human Src (Homo sapiens, UniProt P12931)

>  <Ki / µM>
0.12

$$$$
>  <compound>
CCSc1nc(Nc2cccc(F)c2)c2cnn(CC(C)c3ccccc3)c2n1 (centres unmarked)

>  <target or system>
Recombinant human Src (Homo sapiens, UniProt P12931)

>  <Ki / µM>
0.79

$$$$
>  <compound>
Fc1ccc(CCn2ncc3c(Nc4cccc(Cl)c4)nc(SCCN4CCOCC4)nc32)cc1 [drawing 171]

>  <target or system>
Recombinant human Src (Homo sapiens, UniProt P12931)

>  <Ki / µM>
0.1

$$$$
